Entry source: patent US10428140B2

biological target: T1, human EphA4 (Homo sapiens, UniProt P54764); assay: Affinity of humanized antibodies by SPR (Biacore T200); type: binding; details: human EphA4 extracellular region-SEAP-His; 1:1 binding model
T1 construct: made in house; not restated for the human SEAP-His protein
T1 sequence (P54764 20-547): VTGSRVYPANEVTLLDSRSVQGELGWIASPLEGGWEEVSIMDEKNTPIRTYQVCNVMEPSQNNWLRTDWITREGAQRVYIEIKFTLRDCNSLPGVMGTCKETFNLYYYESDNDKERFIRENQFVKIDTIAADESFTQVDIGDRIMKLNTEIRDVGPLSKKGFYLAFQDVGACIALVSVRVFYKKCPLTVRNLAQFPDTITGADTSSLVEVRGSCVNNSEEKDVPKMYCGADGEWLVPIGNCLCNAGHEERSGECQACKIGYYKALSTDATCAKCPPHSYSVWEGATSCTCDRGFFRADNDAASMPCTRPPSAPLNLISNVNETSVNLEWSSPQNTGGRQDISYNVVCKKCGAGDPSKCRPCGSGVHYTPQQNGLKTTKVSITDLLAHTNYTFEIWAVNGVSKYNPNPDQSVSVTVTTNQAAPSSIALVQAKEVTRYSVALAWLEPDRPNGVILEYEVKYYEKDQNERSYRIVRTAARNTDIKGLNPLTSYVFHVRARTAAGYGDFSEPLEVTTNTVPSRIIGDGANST
MEASUREMENT TYPE: kd (s⁻¹)
Dear colleague, please return just the value in s⁻¹, with no unit written.

Task item: Give a short answer stating reported kd for 92 (antibody, V domains shown, constant regions without entry; synthetic humanized antibody light chain variable region sequence; synthetic humanized antibody heavy chain variable region sequence) VL: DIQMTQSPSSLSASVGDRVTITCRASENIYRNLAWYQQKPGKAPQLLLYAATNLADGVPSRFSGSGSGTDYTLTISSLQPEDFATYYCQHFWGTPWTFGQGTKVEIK VH: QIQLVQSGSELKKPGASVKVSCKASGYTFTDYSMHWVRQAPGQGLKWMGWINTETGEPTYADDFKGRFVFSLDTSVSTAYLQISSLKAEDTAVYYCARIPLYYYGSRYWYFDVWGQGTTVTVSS .
Reply: 0.00043

Task item: Provide measured kd value, entry: 86 (antibody, V domains shown, constant regions without entry; synthetic humanized antibody light chain variable region sequence; synthetic humanized antibody heavy chain variable region sequence) VL: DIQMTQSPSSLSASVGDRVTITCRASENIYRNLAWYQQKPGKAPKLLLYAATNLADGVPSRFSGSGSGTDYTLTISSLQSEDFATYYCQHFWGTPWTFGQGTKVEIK VH: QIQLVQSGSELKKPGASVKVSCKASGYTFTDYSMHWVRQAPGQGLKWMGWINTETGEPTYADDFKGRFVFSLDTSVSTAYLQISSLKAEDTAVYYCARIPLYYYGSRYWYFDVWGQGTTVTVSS
Reply: 0.00046

Task item: Provide measured kd value, entry: 152 (antibody, V domains shown, synthetic humanized antibody heavy chain variable region sequence; synthetic humanized antibody light chain variable region sequence) VH: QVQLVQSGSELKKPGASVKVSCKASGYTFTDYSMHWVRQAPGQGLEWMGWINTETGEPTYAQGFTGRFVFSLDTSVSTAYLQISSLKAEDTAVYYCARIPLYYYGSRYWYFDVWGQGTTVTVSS VL: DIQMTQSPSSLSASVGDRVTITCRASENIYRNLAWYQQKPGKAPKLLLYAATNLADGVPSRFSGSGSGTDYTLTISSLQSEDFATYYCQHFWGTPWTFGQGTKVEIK
Reply: 0.00082

Task item: Consider the molecule 151 (antibody, V domains shown, synthetic humanized antibody heavy chain variable region sequence; synthetic humanized antibody light chain variable region sequence) VH: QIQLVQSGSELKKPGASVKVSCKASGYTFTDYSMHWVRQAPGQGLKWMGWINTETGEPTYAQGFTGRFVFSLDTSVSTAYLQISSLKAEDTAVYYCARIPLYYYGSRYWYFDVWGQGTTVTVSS VL: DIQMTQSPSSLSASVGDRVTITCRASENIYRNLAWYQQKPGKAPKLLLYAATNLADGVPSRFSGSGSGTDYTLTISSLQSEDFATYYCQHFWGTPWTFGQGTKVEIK and give its recorded kd.
Reply: 0.00053
